Sourced from patent EP0837870B1

System: two spotted spider mite (Tetranychus urticae)
Test: Activity against two spotted spider mite (TSSM), sprayed infested squash plants
Assay type: in vivo
Conditions: RATE 400 (ppm), three days after treatment, 4320 min
value type: % MORTALITY (%)

[[record]]
compound = "CC[C@H]1CCC[C@H](O[C@H]2CC[C@H](NC)[C@@H](C)O2)[C@@H](C)C(=O)C2=C[C@H]3[C@@H]4C[C@H](O[C@@H]5O[C@@H](C)[C@H](OC)[C@@H](OC)[C@H]5OC)C[C@H]4CC[C@H]3[C@@H]2CC(=O)O1 [Example F24, 5,6-Dihydro Spinosyn B]"
value_type = "% MORTALITY"
readout_unit = "%"
recorded_result = 100

[[record]]
compound = "CCOC1C(OC2CC3CCC4C5CC(=O)OC(CC)CCCC(OC6CCC(N(C)C)C(C)O6)C(C)C(=O)C5=CC4C3C2)OC(C)C(OC)C1OC (stereo not shown) [Example A7, 5,6-Dihydro-2'-O-ethyl Spinosyn H]"
value_type = "% MORTALITY"
readout_unit = "%"
recorded_result = 100

[[record]]
compound = "CCCOC1C(OC)C(C)OC(OC2CC3CCC4C5CC(=O)OC(CC)CCCC(OC6CCC(N(C)C)C(C)O6)C(C)C(=O)C5=CC4C3C2)C1OC (stereo not shown) [Example A4, 5,6-Dihydro-3'-O-n-propyl Spinosyn J]"
value_type = "% MORTALITY"
readout_unit = "%"
recorded_result = 100

[[record]]
compound = "CCC1CCCC(OC2CCC(N(C)C)C(C)O2)C(C)C(=O)C2=CC3C4CC(OC5OC(C)C(OC)C(OC)C5OC)CC4[C@]4(C)O[C@@H]4C3C2CC(=O)O1 (stereo partly drawn) [Example F8b, (5R,6S)-Epoxy Spinosyn D]"
value_type = "% MORTALITY"
readout_unit = "%"
recorded_result = 90

[[record]]
compound = "CC[C@H]1CCC[C@H](O[C@H]2CC[C@H](N(C)C)[C@@H](C)O2)[C@@H](C)C(=O)C2=C[C@H]3[C@@H]4C[C@H](O[C@@H]5O[C@@H](C)[C@H](OC)[C@@H](OC)[C@H]5OC)C[C@H]4CC[C@H]3[C@@H]2CC(=O)O1"
value_type = "% MORTALITY"
readout_unit = "%"
recorded_result = 100

[[record]]
compound = "CCC1CCCC(OC2CCC(N(C)C)C(C)O2)C(C)C(=O)C2=CC3C4CC(OC5OC(C)C(OC)C(OC)C5OC)CC4[C@H]4O[C@H]4C3C2CC(=O)O1 (stereo partly drawn) [Example F7a, (5S,6R)-5,6-Epoxy Spinosyn A]"
value_type = "% MORTALITY"
readout_unit = "%"
recorded_result = 90

[[record]]
compound = "CCCOC1C(OC2CC3CCC4C5CC(=O)OC(CC)CCCC(OC6CCC(N(C)C)C(C)O6)C(C)C(=O)C5=CC4C3C2)OC(C)C(OC)C1OC (stereo not shown) [Example A8, 5,6-Dihydro-2'-O-n-propyl Spinosyn H]"
value_type = "% MORTALITY"
readout_unit = "%"
recorded_result = 100

[[record]]
compound = "CCCOC1C(OC)C(C)OC(OC2CC3CCC4C5CC(=O)OC(CC)CCCC(OC6CCC(N(C)C)C(C)O6)C(C)C(=O)C5=CC4C3C2)C1OC.CCCOC1C(OC)C(C)OC(OC2CC3CCC4C5CC(=O)OC(CC)CCCC(OC6CCC(N(C)C)C(C)O6)C(C)C(=O)C5=CC4C3C2)C1OC.O=C(O)CCCC(=O)O (stereo not shown)"
value_type = "% MORTALITY"
readout_unit = "%"
recorded_result = 100

[[record]]
compound = "CCOC1C(OC)C(C)OC(OC2CC3CCC4C5CC(=O)OC(CC)CCCC(OC6CCC(N(C)C)C(C)O6)C(C)C(=O)C5=CC4C3C2)C1OC (stereo not shown) [Example A3, 5,6-Dihydro-3'-O-ethyl Spinosyn J]"
value_type = "% MORTALITY"
readout_unit = "%"
recorded_result = 100

[[record]]
compound = "CCC1CCCC(OC2CCC(N(C)C)C(C)O2)C(C)C(=O)C2=CC3C4CC(OC5OC(C)C(OC)C(OC)C5OC)CC4[C@@]4(C)O[C@H]4C3C2CC(=O)O1 (stereo partly drawn) [Example F8a, (5S,6R)-Epoxy Spinosyn D]"
value_type = "% MORTALITY"
readout_unit = "%"
recorded_result = 90


---

The compounds listed here are annotated with their % MORTALITY.
Test system: tobacco budworm (Heliothis virescens)
Test: Activity against tobacco budworm (TBW), sprayed diet cups with eggs
Type: in vivo
Details: RATE 400 (ppm), 6 days
value type: % MORTALITY

[[record]]
compound = "CC[C@H]1CCC[C@H](O[C@H]2CC[C@H](N(C)C)[C@@H](C)O2)[C@@H](C)C(=O)C2=C[C@H]3[C@@H]4C[C@H](O[C@@H]5O[C@@H](C)[C@H](OC)[C@@H](OC)[C@H]5OC)C[C@H]4CC[C@H]3[C@@H]2CC(=O)O1"
recorded_result = "100%"

[[record]]
compound = "CCC1CCCC(OC2CCC(N(C)C)C(C)O2)C(C)C(=O)C2=CC3C4CC(OC5OC(C)C(OC)C(OC)C5OC)CC4[C@@H](OC(=O)C(Cl)(Cl)Cl)[C@@H](OC(=O)C(Cl)(Cl)Cl)C3C2CC(=O)O1 (stereo partly drawn) [Example F13b]"
recorded_result = "60%"

[[record]]
compound = "CCOC1C(OC)C(C)OC(OC2CC3CCC4C5CC(=O)OC(CC)CCCC(OC6CCC(N(C)C)C(C)O6)C(C)C(=O)C5=CC4C3C2)C1OC (stereo not drawn) [Example A3, 5,6-Dihydro-3'-O-ethyl Spinosyn J]"
recorded_result = "100%"


---

Test system: tobacco budworm (Heliothis virescens)
Assay: Activity against tobacco budworm (TBW), sprayed diet cups with eggs
Assay type: in vivo
Conditions: RATE 400 (ppm), 6 days
This section presents compounds with their documented % MORTALITY values.
value type: % MORTALITY (%)

[[record]]
compound = "CCC1CCCC(OC2CCC(N(C)C)C(C)O2)C(C)C(=O)C2=CC3C4CC(OC5OC(C)C(OC)C(OC)C5OC)CC4[C@@H](S(C)(=O)=O)[C@H](OC(C)=O)C3C2CC(=O)O1 (stereo partly drawn) [Example F17]"
readout_unit = "%"
recorded_result = 100

[[record]]
compound = "CCC1CCCC(OC2CCC(N(C)C)C(C)O2)C(C)C(=O)C2=CC3C4CC(OC5OC(C)C(OC)C(OC)C5OC)CC4[C@@H]4O[C@@H]4C3C2CC(=O)O1 (stereo partly drawn) [Example F7b, (5R,6S)-Epoxy Spinosyn A]"
readout_unit = "%"
recorded_result = 100

[[record]]
compound = "CCC1CCCC(OC2CCC(N(C)C)C(C)O2)C(C)C(=O)C2=CC3C4CC(OC5OC(C)C(OC)C(OC)C5O)CC4CCC3C2CC(=O)O1 (stereo not drawn) [Example F22, 5,6-Dihydro Spinosyn H]"
readout_unit = "%"
recorded_result = 100

[[record]]
compound = "CCC1CCCC(OC2CCC(N(C)C)C(C)O2)C(C)C(=O)C2=CC3C4CC(OC5OC(C)C(OC)C(OC)C5OC)CC4[C@]4(C)O[C@@H]4C3C2CC(=O)O1 (stereo partly drawn) [Example F8b, (5R,6S)-Epoxy Spinosyn D]"
readout_unit = "%"
recorded_result = 100

[[record]]
compound = "CCC1CCCC(OC2CCC(N(C)C)C(C)O2)C(C)C(=O)C2=CC3C4CC(OC5OC(C)C(OC)C(OC)C5OC)CC4[C@H]4O[C@H]4C3C2CC(=O)O1 (stereo partly drawn) [Example F7a, (5S,6R)-5,6-Epoxy Spinosyn A]"
readout_unit = "%"
recorded_result = 100

[[record]]
compound = "CCC1CCCC(OC2CCC(N(C)C)C(C)O2)C(C)C(=O)C2=CC3C4CC(OC5OC(C)C(OC)C(OC)C5OC)CC4[C@@H](Br)[C@H](Br)C3C2CC(=O)O1 (stereo partly drawn) [Example F14, (5R,6R)-5,6-Dibromo Spinosyn A]"
readout_unit = "%"
recorded_result = 60

[[record]]
compound = "CCCOC1C(OC)C(C)OC(OC2CC3CCC4C5CC(=O)OC(CC)CCCC(OC6CCC(N(C)C)C(C)O6)C(C)C(=O)C5=CC4C3C2)C1OC (stereo not drawn) [Example A4, 5,6-Dihydro-3'-O-n-propyl Spinosyn J]"
readout_unit = "%"
recorded_result = 100

[[record]]
compound = "CCC1CCCC(OC2CCC(N(C)C)C(C)O2)C(C)C(=O)C2=CC3C4CC(OC5OC(C)C(OC)C(OC)C5OC)CC4[C@@H](SC)[C@H](OC(C)=O)C3C2CC(=O)O1 (stereo partly drawn) [Example F16]"
readout_unit = "%"
recorded_result = 100

[[record]]
compound = "CCC1CCCC(OC2CCC(N(C)C)C(C)O2)C(C)C(=O)C2=CC3C4CC(OC5OC(C)C(OC)C(OC)C5OC)CC4[C@@H](Br)[C@H](OCCO)C3C2CC(=O)O1 (stereo partly drawn) [Example F1]"
readout_unit = "%"
recorded_result = 100

[[record]]
compound = "CCCCOC1C(OC)C(C)OC(OC2CC3CCC4C5CC(=O)OC(CC)CCCC(OC6CCC(N(C)C)C(C)O6)C(C)C(=O)C5=CC4C3C2)C1OC (stereo not drawn) [Example A5, 5,6-Dihydro-3'-O-n-butyl Spinosyn J]"
readout_unit = "%"
recorded_result = 100

[[record]]
compound = "CCCOC1C(OC2CC3CCC4C5CC(=O)OC(CC)CCCC(OC6CCC(N(C)C)C(C)O6)C(C)C(=O)C5=CC4C3C2)OC(C)C(OC)C1OC (stereo not drawn) [Example A8, 5,6-Dihydro-2'-O-n-propyl Spinosyn H]"
readout_unit = "%"
recorded_result = 100

[[record]]
compound = "CC[C@H]1CCC[C@H](O[C@H]2CC[C@H](NC)[C@@H](C)O2)[C@@H](C)C(=O)C2=C[C@H]3[C@@H]4C[C@H](O[C@@H]5O[C@@H](C)[C@H](OC)[C@@H](OC)[C@H]5OC)C[C@H]4CC[C@H]3[C@@H]2CC(=O)O1 [Example F24, 5,6-Dihydro Spinosyn B]"
readout_unit = "%"
recorded_result = 100

[[record]]
compound = "CCC1CCCC(OC2CCC(N(C)C)C(C)O2)C(C)C(=O)C2=CC3C4CC(O)CC4CCC3C2CC(=O)O1 (stereo not drawn) [Example F19, 5,6-Dihydro Spinosyn A 9-Psa]"
readout_unit = "%"
recorded_result = 100

[[record]]
compound = "CCCOC1C(OC)C(C)OC(OC2CC3CCC4C5CC(=O)OC(CC)CCCC(OC6CCC(N(C)C)C(C)O6)C(C)C(=O)C5=CC4C3C2)C1OC.CCCOC1C(OC)C(C)OC(OC2CC3CCC4C5CC(=O)OC(CC)CCCC(OC6CCC(N(C)C)C(C)O6)C(C)C(=O)C5=CC4C3C2)C1OC.O=C(O)CCCC(=O)O (stereo not drawn) [Example A6]"
readout_unit = "%"
recorded_result = 100

[[record]]
compound = "CCC1CCCC(OC2CCC(N(C)C)C(C)O2)C(C)C(=O)C2=CC3C4CC(OC5OC(C)C(OC)C(OC)C5OC)CC4[C@@]4(C)O[C@H]4C3C2CC(=O)O1 (stereo partly drawn) [Example F8a, (5S,6R)-Epoxy Spinosyn D]"
readout_unit = "%"
recorded_result = 100

[[record]]
compound = "CCC1CCCC(OC2CCC(N(C)C)C(C)O2)C(C)C(=O)C2=CC3C4CC(OC5OC(C)C(OC)C(OC)C5OC(=O)c5ccc(C(F)(F)F)cc5)CC4[C@@]4(C)O[C@H]4C3C2CC(=O)O1 (stereo partly drawn) [Example A2]"
readout_unit = "%"
recorded_result = 100

[[record]]
compound = "CCOC1C(OC2CC3CCC4C5CC(=O)OC(CC)CCCC(OC6CCC(N(C)C)C(C)O6)C(C)C(=O)C5=CC4C3C2)OC(C)C(OC)C1OC (stereo not drawn) [Example A7, 5,6-Dihydro-2'-O-ethyl Spinosyn H]"
readout_unit = "%"
recorded_result = 100

[[record]]
compound = "CCC1CCCC(OC2CCC(N(C)C)C(C)O2)C(C)C(=O)C2=CC3C4CC(OC5OC(C)C(OC)C(OC)C5OC)CC4C[C@H](O)C3C2CC(=O)O1 (stereo partly drawn) [Example F15a, (5S)-5,6-dihydro-5-hydroxy Spinosyn A]"
readout_unit = "%"
recorded_result = 100

